src = the supplement of paper PMC10567573

B1: CD207 (parent)
chain: MTVEKEAPDAHFTVDKQNISLWPR

- Variants of: B1
- procedure details: protein stability index of a GFP-peptide fusion (GPS, HEK-293T) (PSI 1-6); higher = more stable;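 also: lentivirally expressed fusions sorted by FACS into six bins by GFP to DsRed ratio, PSI derived from sequencing read proportions per bin multiplied by bin number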
- experimental conditions: c terminus: a fixed tail appended
metric name: protein stability index
The response must contain the number and no unit.

Examples with answers:
sequence variant	protein stability index
L21V	3.09
P8E	4.39
E4Q	3.92
R24W	2.78
A7V	3.51
S20Q	3.1
A10P	3.01
V3Y	2.75

Report measured protein stability index; entry is `L21H`
4.06

Return value of protein stability index for input `H11M` , no commentary.
2.88

Could you please provide reported protein stability index for `V14E` ? Thanks!
3.79

Output measured protein stability index for this item: `K16A`
3.52

Give the reported value of protein stability index for this record: `K16D`
3.35

Annotate the variant `I19L` with its measured protein stability index.
3.35

Return protein stability index for the following variant: `N18M`
3.5

Give protein stability index for the following variant: `S20E`
3.33

Identify protein stability index associated with the variant `K16E`
4.13

Report measured protein stability index; entry is `S20N`
3.07

Determine from records and report protein stability index for `W22F`
3.91

Identify measured protein stability index associated with `Q17M`
2.15

Identify measured protein stability index corresponding to `Q17D`
3.73

Provide one value: measured protein stability index of `K5Y`
1.99
